# experimental target: KRAS(G12C) (Homo sapiens, UniProt P01116, G12C)
# Sequence (P01116 1-188 isoform P01116-2 G12C): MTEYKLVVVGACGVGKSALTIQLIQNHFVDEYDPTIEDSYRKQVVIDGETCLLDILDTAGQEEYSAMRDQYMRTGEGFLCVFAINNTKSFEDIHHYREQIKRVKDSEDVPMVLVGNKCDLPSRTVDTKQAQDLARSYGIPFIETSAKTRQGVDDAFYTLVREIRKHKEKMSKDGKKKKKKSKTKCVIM
# assay summary: KRAS(G12C)/SOS1 homogeneous time-resolved fluorescence (HTRF) assay
# Set-up: purchased Cisbio 63ADK000CB16PEG
# study conditions: absence of GTP, 4° C. for 3 hr, read-out: KRAS (G12C) binding
recorded metric: IC50

These solved cases illustrate the format of a correct answer.
C=CC(=O)N1CCN(c2nc(NCCC(=O)N3CCC(CN4CCN(Cc5ccc(-n6c(C(=O)NCC(F)(F)F)nnc6-c6cc(C)c(O)cc6O)cc5)CC4)CC3)nc3c2CCN(c2cccc4cccc(Cl)c24)C3)C[C@H]1CC#N :: > 1000 nM
C=CC(=O)N1CCN(c2nc(OC[C@@H]3C[C@@H](OCC(=O)NCc4ccc(-n5c(O)nnc5-c5cc(C(C)C)c(O)cc5O)cc4)CN3C)nc3c2CCN(c2cccc4cccc(Cl)c24)C3)C[C@@H]1CC#N :: 100 to 1000 nM
C=CC(=O)N1CCN(c2nc(OC[C@@H]3C[C@H](N4CCN(Cc5ccc(-n6c(O)nnc6-c6cc(C(C)C)c(O)cc6O)cc5)CC4)CN3C)nc3c2CCN(c2cccc4cccc(C)c24)C3)C[C@@H]1CC#N :: < 100 nM
C=CC(=O)N1CCN(c2nc(OC[C@@H]3C[C@H](N4CCN(CC5CCN(Cc6ccc(-n7c(C(=O)NCC)nnc7-c7cc(C(C)C)c(O)cc7O)cc6)CC5)CC4)CN3C)nc3c2CCN(c2cccc4cccc(Cl)c24)C3)C[C@@H]1CC#N :: < 100 nM
C=CC(=O)N1CCN(c2nc(NCCC(=O)NCC3CCC(C(=O)N4CCN(Cc5ccc(-n6c(O)nnc6-c6cc(CC)c(O)cc6O)cc5)CC4)CC3)nc3c2CCN(c2cc(O)cc4ccccc24)C3)CC1 (stereo not drawn) :: > 1000 nM

Provide reported IC50 for each item, in the same order as listed.
1. C=CC(=O)N1CCN(c2nc(OC[C@@H]3C[C@H](C(=O)N4CCN(CCNC(=O)c5nnc(-c6cc(C(C)C)c(O)cc6O)n5-c5ccccc5)CC4)CN3C)nc3c2CCN(c2cccc4cccc(Cl)c24)C3)C[C@@H]1CC#N
2. C=CC(=O)N1CCN(c2nc(OCCN3CCN(C(=O)C4CCN(Cc5ccc(-n6c(C(N)=O)nnc6-c6cc(C(C)C)c(O)cc6O)cc5)CC4)CC3)nc3c2CCN(c2cccc4cccc(Cl)c24)C3)C[C@@H]1CC#N
3. C=CC(=O)N1CCN(c2nc(NCCC(=O)N3CCC(CN4CCN(Cc5ccc(-n6c(C(=O)NCC(F)(F)F)nnc6-c6cc(CC)c(O)cc6O)cc5)CC4)CC3)nc3c2CCN(c2cccc4ccccc24)C3)C[C@H]1CC#N
4. C=CC(=O)N1CCN(c2nc(OC[C@@H]3CC[C@H](CN4CCN(C(=O)C5CCN(Cc6ccc(-n7c(O)nnc7-c7cc(C)c(O)cc7O)cc6)CC5)CC4)N3C)nc3c2CCN(c2cccc4ccccc24)C3)C[C@@H]1CC#N

Ans:
1: < 100 nM; 2: < 100 nM; 3: > 1000 nM; 4: < 100 nM
